# Test system: BV-2
# Test Details: Anti-inflammatory activity against mouse BV-2 cells assessed as inhibition of LPS-induced TNFalpha production pretreated for 2 hrs followed stimulated with LPS for 22 hrs at 10 uM relative to control
# Format: functional
# Run Conditions: time 24 hrs
# key: entry, value: inhibition at 10 µM
Observation Type: inhibition at 10 µM

# Compound, Observation Type, Value
measured = [
    ("COc1cc2c(c(OC)c1OC)C(=O)CC(c1cccc(C(=O)Nc3ccc(Br)cc3)c1)O2 (racemic)", "inhibition at 10 µM", "24.9%"),
    ("COc1cc2c(c(OC)c1OC)C(=O)CC(c1cccc(NC(=O)c3ccccc3Br)c1)O2 (racemic)", "inhibition at 10 µM", "62.4%"),
    ("COc1cc2c(c(OC)c1OC)C(=O)CC(c1cccc(C(=O)Nc3cccc(Br)c3)c1)O2 (racemic)", "inhibition at 10 µM", "39.5%"),
    ("COc1cc2c(c(OC)c1OC)C(=O)CC(c1cccc(NC(=O)c3ccc(Br)cc3)c1)O2 (racemic)", "inhibition at 10 µM", "50%"),
    ("COc1cc2c(c(OC)c1OC)C(=O)CC(c1cccc(NC(=O)c3ccc([N+](=O)[O-])cc3)c1)O2 (racemic)", "inhibition at 10 µM", "54.6%"),
]
